molecular target: hTLR4 (Homo sapiens, UniProt O00206+Q9Y6Y9); construct: expressed in transfected cells; host or cells: HEK cells expressing hTLR4 and an NF-κB driven SEAP reporter; test: HEK hTLR4 NF-κB driven SEAP reporter assay (hTLR4 activation); type: cell-based; details: Table 1b, 18 hours
Sequence (O00206 24-839): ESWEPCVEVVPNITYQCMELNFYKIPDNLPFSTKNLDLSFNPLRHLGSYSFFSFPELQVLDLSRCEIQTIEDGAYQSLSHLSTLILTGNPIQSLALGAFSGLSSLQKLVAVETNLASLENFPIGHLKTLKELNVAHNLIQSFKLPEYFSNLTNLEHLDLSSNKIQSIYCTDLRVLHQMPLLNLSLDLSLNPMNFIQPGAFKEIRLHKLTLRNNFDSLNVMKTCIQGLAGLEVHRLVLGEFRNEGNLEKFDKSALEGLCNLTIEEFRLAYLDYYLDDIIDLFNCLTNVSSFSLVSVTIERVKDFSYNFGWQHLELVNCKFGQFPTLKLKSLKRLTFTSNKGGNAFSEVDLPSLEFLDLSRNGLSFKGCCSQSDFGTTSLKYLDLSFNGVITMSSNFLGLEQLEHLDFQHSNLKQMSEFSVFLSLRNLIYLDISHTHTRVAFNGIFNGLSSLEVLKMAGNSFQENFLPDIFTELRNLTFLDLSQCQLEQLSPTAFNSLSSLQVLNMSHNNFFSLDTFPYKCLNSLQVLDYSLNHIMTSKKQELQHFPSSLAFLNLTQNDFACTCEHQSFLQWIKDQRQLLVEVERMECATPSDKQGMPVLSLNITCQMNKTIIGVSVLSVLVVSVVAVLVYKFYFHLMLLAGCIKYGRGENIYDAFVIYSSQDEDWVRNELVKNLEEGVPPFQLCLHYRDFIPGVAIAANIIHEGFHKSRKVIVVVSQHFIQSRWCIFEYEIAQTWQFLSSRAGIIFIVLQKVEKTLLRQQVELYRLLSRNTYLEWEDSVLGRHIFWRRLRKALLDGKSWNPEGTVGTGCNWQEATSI
Sequence (Q9Y6Y9 17-160 limits assumed): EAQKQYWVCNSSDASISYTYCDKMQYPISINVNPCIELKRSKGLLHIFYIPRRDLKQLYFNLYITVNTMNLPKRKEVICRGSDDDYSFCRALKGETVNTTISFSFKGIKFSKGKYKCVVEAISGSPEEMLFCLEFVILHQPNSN
endpoint.name: pEC50
Give only the number. pEC50 is defined as minus log10 of concentration in molar units.

Here is how some compounds turned out for pEC50.
compound: CCCCCCCCCCC[C@H](CC(=O)NCCO[C@@H]1OC(CO)[C@@H](OCP(=O)(O)O)[C@H](NC(=O)C[C@@H](CCCCCCCCCCC)OC(=O)CCCCCCCCC)C1NC(=O)C[C@@H](CCCCCCCCCCC)OC(=O)CCCCCCCCC)OC(=O)CCCCCCCCC (stereo partly shown)
assay.result: 7.99
--
compound: CCCCCCCCCCC[C@H](CC(=O)NCCO[C@@H]1OC(CO)[C@@H](OP(=O)(O)O)C(NC(=O)C[C@@H](CCCCCCCCCCC)OC(=O)CCCCCCCc2ccccc2)C1NC(=O)C[C@@H](CCCCCCCCCCC)OC(=O)CCCCCCCCC)OC(=O)CCCCCCCCC (stereo partly shown)
assay.result: 7.80
--
compound: CCCCCCCCCCC[C@H](CC(=O)NCCO[C@@H]1OC(CO)[C@@H](OP(=O)(O)O)C(NC(=O)C[C@@H](CCCCCCCCCCC)OC(=O)CCCCCCCc2ccccc2)C1NC(=O)C[C@@H](CCCCCCCCCCC)OC(=O)CCCCCCCc1ccccc1)OC(=O)CCCCCCCc1ccccc1 (stereo partly shown)
assay.result: 8.30

Turning to the following compound.
Req: Provide one value: measured pEC50 of CCCCCCCCCCC[C@H](CC(=O)NCCO[C@@H]1O[C@H](CO)[C@@H](OP(=O)(O)O)[C@@H](NC(=O)C[C@@H](CCCCCCCCCCC)OC(=O)CCCCCCCCC)[C@H]1NC(=O)C[C@@H](CCCCCCCCCCC)OC(=O)CCCCCCCCC)OC(=O)CCCCCCCCC
Resp: 7.71

====

tested on: hMM6 cells; experiment: Induction of MIP-1β cytokine from hMM6 cells (ELISA); format: cell-based; settings: Homo sapiens, 18 hours
endpoint.name: EC50 (nM)
I only need the number, in nM, no unit after it.

molecule: CCCCCCCCCCC[C@H](CC(=O)NC1C(NC(=O)C[C@@H](CCCCCCCCCCC)OCCCCCCCCCC)[C@H](OP(=O)(O)O)C(CO)O[C@H]1OC[C@H](NC(=O)C[C@@H](CCCCCCCCCCC)OCCCCCCCCCC)C(=O)O)OCCCCCCCCCC (stereo partly shown)
endpoint.name: EC50
assay.result: 0.124
--
molecule: CCCCCCCCCCC[C@H](CC(=O)NCCO[C@@H]1OC(CO)[C@@H](OS(=O)(=O)O)[C@H](NC(=O)C[C@@H](CCCCCCCCCCC)OC(=O)CCCCCCCCC)C1NC(=O)C[C@@H](CCCCCCCCCCC)OC(=O)CCCCCCCCC)OC(=O)CCCCCCCCC (stereo partly shown)
endpoint.name: EC50
assay.result: 5.89
--
molecule: CCCCCCCCCCC[C@H](CC(=O)N[C@H]1[C@H](OC[C@H](NC(=O)C[C@@H](CCCCCCCCCCC)OC(=O)CCCCCCCCC)C(=O)OC)O[C@H](CO)[C@@H](OP(=O)(O)O)[C@H]1NC(=O)C[C@@H](CCCCCCCCCCC)OC(=O)CCCCCCCCC)OC(=O)CCCCCCCCC
endpoint.name: EC50
assay.result: 0.462

# ---- query molecule ----
Req: Give the reported value of EC50 for this record: CCCCCCCCCCC[C@H](CC(=O)NCCO[C@@H]1O[C@H](CO)[C@@H](OP(=O)(O)O)[C@@H](NC(=O)C[C@@H](CCCCCCCCCCC)OC(=O)CCCCCCCCC)[C@H]1NC(=O)C[C@@H](CCCCCCCCCCC)OC(=O)CCCCCCCCC)OC(=O)CCCCCCCCC
Resp: 0.251

Reference source: patent US20250170156A1
